Listed molecules paired with reported melting point

Molecule	melting point, °C
COC(=S)NC[C@H]1CN(c2ccc(N3CCOC3=O)c(F)c2)C(=O)O1 [Example 119]	137
COC(=S)NC[C@H]1CN(c2ccc(-n3c(=O)oc4ccccc43)cc2)C(=O)O1 [Example 139]	141
COC(=S)NC[C@H]1CN(c2ccc(N3CC(=O)N(C)C3)cc2)C(=O)O1 [Example 143]	205
O=C1OCCN1c1ccc(N2C[C@H](CNC(=S)N3CCSCC3)OC2=O)cc1 [Example 190]	159

###

Values of melting point strictly less than 200 °C map to rule met, and values of at least 200 °C map to rule not met.

Molecule	Label
COc1ccc(CNC(=S)NC[C@H]2CN(c3ccc(N4CCOC4=O)cc3)C(=O)O2)cc1 [Example 186]	rule met
COC(=S)NC[C@H]1CN(c2ccc(N3CC(=O)N(Cc4ccc(OC)cc4)C3)c(F)c2)C(=O)O1 [Example 153]	rule met
CCCOC(=S)NC[C@H]1CN(c2ccc(N3CCN(C)C3=S)c(F)c2)C(=O)O1 [Example 125]	rule not met
NC(=S)NC[C@H]1CN(c2cc(F)c(N3CCOC3=O)c(F)c2)C(=O)O1 [Example 194]	rule met
CC(=O)NC[C@H]1CN(c2ccc(-n3c(=O)oc4ccccc43)cc2)C(=O)O1 [Example 89]	rule not met
CC(=O)NC[C@H]1CN(c2ccc(N3CCOC3=O)cc2F)C(=O)O1 [Example 85]	rule met
C=CC(=O)NC[C@H]1CN(c2ccc(N3CCOC3=O)c(C(F)(F)F)c2)C(=O)O1 [Example 84]	rule met
CN(C)CCOC(=S)NC[C@H]1CN(c2ccc(N3CCOC3=O)cc2)C(=O)O1 [Example 152]	rule met

###

A short record of MIC observed with H. influenzae 433 (Haemophilus influenzae ATCC 49766) follows.

Molecule	MIC
COC(=S)NC[C@H]1CN(c2cc(F)c(N3CC(=O)N(C)C3)c(F)c2)C(=O)O1	16 µg/mL
CCCOC(=S)NC[C@H]1CN(c2cc(F)c(N3CNC(=O)C3)c(F)c2)C(=O)O1	> 32 µg/mL
CC(C)OC(=S)NC[C@H]1CN(c2cc(F)c(N3CNC(=O)C3)c(F)c2)C(=O)O1	> 32 µg/mL
CCOC(=S)NC[C@H]1CN(c2cc(F)c(N3CNC(=O)C3)c(F)c2)C(=O)O1	> 32 µg/mL

###

Parameter 'readout' = MIC; parameter 'system' = Staphylococcus aureus 035 S (ATCC 29213).
Property: MIC (µg/mL)

Molecule	Property	Assay value
COC(=S)NC[C@H]1CN(c2cc(F)c(N3CC(=O)N(CC(=O)OC(C)(C)C)C3)c(F)c2)C(=O)O1	MIC	2
CCOC(=S)NC[C@H]1CN(c2cc(F)c(N3CNC(=O)C3)c(F)c2)C(=O)O1	MIC	0.5
COC(=O)CN1CN(c2c(F)cc(N3C[C@H](CNC(=S)OC)OC3=O)cc2F)CC1=O	MIC	2
CCCOC(=S)NC[C@H]1CN(c2cc(F)c(N3CNC(=O)C3)c(F)c2)C(=O)O1	MIC	1
COC(=S)NC[C@H]1CN(c2cc(F)c(N3CC(=O)N(C)C3)c(F)c2)C(=O)O1	MIC	0.5
CC(C)OC(=S)NC[C@H]1CN(c2cc(F)c(N3CNC(=O)C3)c(F)c2)C(=O)O1	MIC	2
